Reference source: patent US20120135923A1

- TARGET: hMC1-R (human) (UniProt Q01726)
- Sequence (Q01726 whole entry): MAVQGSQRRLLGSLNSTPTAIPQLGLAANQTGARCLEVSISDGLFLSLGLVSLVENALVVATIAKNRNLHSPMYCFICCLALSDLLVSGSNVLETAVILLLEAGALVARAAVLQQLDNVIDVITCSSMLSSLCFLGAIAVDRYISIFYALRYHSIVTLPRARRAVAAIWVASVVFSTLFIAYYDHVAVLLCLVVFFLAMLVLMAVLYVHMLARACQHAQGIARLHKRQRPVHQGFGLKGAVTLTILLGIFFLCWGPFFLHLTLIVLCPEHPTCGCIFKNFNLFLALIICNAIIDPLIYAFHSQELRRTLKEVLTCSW
- METHOD: cell-based or functional assay
Bridge positions count the residues as written; N and C are the ends. Square brackets hold non-standard residues; d marks the D form. Ends that are not written are not given here. d2Nal = N[C@H](Cc1ccc2ccccc2c1)C(=O)O; Bta = N[C@@H](Cc1csc2ccccc12)C(=O)O; Pen = CC(C)(S)[C@H](N)C(=O)O; Nle = CCCC[C@H](N)C(=O)O; Orn = NCCC[C@H](N)C(=O)O; Ahx = NCCCCCC(=O)O; GABA = NCCCC(=O)O
PARAMETER_MEASURED: cAMP EC50 (nM)
Note: unit nM is implicit; provide only the numeric part.

Reference set, count: 4
Asked: Which cAMP EC50 value is on record for Ac-[Nle]D[dA]H[dF]R[Bta]K-NH2 (lactam 2-8; SMILES CCCC[C@H](NC(C)=O)C(=O)N[C@H]1CC(=O)NCCCC[C@@H](C(N)=O)NC(=O)[C@H](Cc2csc3ccccc23)NC(=O)[C@H](CCCNC(=N)N)NC(=O)[C@@H](Cc2ccccc2)NC(=O)[C@H](Cc2c[nH]cn2)NC(=O)[C@@H](C)NC1=O) [Ac-Nle-c(Asp-D-Ala-His-D-Phe-Arg-Bal-Lys)-NH2] ?
Given back: 0.931

Asked: Could you tell me which cAMP EC50 is on file for Ac-[Nle]CH[dF]RW[GABA][Pen]-NH2 (disulfide 2-8) [Ac-Nle-c(Cys-His-D-Phe-Arg-Trp-Gaba-Pen)-NH2] ?
Given back: 0.28

Asked: cAMP EC50 lookup needed for Ac-[Nle]CH[d2Nal]RW[GABA]C-NH2 (disulfide 2-8) [Ac-Nle-c(Cys-His-D-2-Nal-Arg-Trp-Gaba-Cys)-NH2] , thanks.
Given back: 0.231

Asked: Record request: cAMP EC50 value, item Ac-[dR]CH[dF]RW[GABA][Pen]-NH2 (disulfide 2-8; SMILES CC(=O)N[C@H](CCCNC(=N)N)C(=O)N[C@H]1CSSC(C)(C)[C@@H](C(N)=O)NC(=O)CCCNC(=O)[C@H](Cc2c[nH]c3ccccc23)NC(=O)[C@H](CCCNC(=N)N)NC(=O)[C@@H](Cc2ccccc2)NC(=O)[C@H](Cc2c[nH]cn2)NC1=O) [Ac-D-Arg-c(Cys-His-D-Phe-Arg-Trp-Gaba-Pen)-NH2]
Given back: 8.43

Further cases:
Asked: Need cAMP EC50, item RGCAHXRWC (residues 1-2 joined in a hydantoin ring (C(O)); D-Ala4; X6=D-2-Nal; Cys3-Cys9 disulfide; C-terminal amide) [Hydantoin(C(O)-(Arg-Gly))-c(Cys-D-Ala-His-D-2-Nal-Arg-Trp-Cys)-NH2]
Given back: 96.6

Asked: Endpoint output: cAMP EC50 of Ac-[Nle]CH[d2Nal]RW[Ahx]C-NH2 (disulfide 2-8) [Ac-Nle-c(Cys-His-D-2-Nal-Arg-Trp-Ahx-Cys)-NH2] . Value?
Given back: 0.581

Asked: May I ask what cAMP EC50 has been recorded for D[dA]H[dF]RW[Orn]-NH2 (lactam 1-7; also: residues 1-2 joined in a hydantoin ring (C(O))) [c[Hydantoin(C(O)-(Asp-D-Ala))-His-D-Phe-Arg-Trp-Orn]-NH2] ?
Given back: 56.6
